system: Proteus mirabilis ATCC 29906; assay: TMA inhibition in bacterial whole cells (LC–MS/MS of d9-TMA from d9-choline); assay type: cell-based; settings: Proteus mirabilis, ATCC29906, 1.5 h; 1 mM d9-choline in PBS, 90 min, 37°C, anaerobic; read-out: EC50 in whole cells, P. mirabilis (TMA inhibition)
Could you mark each record Y if its EC50 falls strictly under 40 µM, and N if it equals or exceeds it?

Q) For CCCNCCNC(=O)c1cc(-c2ccc(C)c(C)c2)[nH]c1C [C00009] , is the recorded EC50 below the cut-off of 40 µM?
A) N

Q) Regarding Cc1ccc(-c2cc(C(=O)NCCCCN3CCCCCC3)c(C)[nH]2)cc1C [C00018] , kindly confirm whether its EC50 is beneath 40 µM.
A) Y

Q) Please state whether EC50 is below 40 µM for Cc1ccc(-c2cc(C(=O)NCCCN3CCC(C)CC3)c(C)[nH]2)cc1C [Compound 6]
A) N

Q) I'd appreciate it if you could check whether Cc1ccc(-c2cc(C(=O)NCCCN3CCCCC3)c(C)[nH]2)cc1C [C00015] has EC50 smaller than 40 µM.
A) N

Q) # check: EC50 < 40 µM for Cc1ccc(-c2cc(C(=O)NCCCCCN3CCC(C)CC3)c(C)[nH]2)cc1C [C00005]
A) N

Q) # strict comparison: is reported EC50 < 40 µM? input = CCCN(CCC)CCNC(=O)c1cc(-c2ccc(C)c(C)c2)[nH]c1C [C00010]
A) N

Q) EC50 under 40 µM? Item: Cc1ccc(-c2cc(C(=O)NCCCN3CCCCCCC3)c(C)[nH]2)cc1C [C00017]
A) Y

Q) Find out if reported EC50 for Cc1ccc(-c2cc(C(=O)NCCCN3CCN(C)CC3)c(C)[nH]2)cc1C [C00012] is less than 40 µM
A) N
